target: D(2) dopamine receptor (Homo sapiens); experiment: […] Dopamine receptor D2 mitogenesis measured as [3H]thymidine incorporation in CHO p-5 cells expressing human D2 receptors
Sequence (P14416 whole entry): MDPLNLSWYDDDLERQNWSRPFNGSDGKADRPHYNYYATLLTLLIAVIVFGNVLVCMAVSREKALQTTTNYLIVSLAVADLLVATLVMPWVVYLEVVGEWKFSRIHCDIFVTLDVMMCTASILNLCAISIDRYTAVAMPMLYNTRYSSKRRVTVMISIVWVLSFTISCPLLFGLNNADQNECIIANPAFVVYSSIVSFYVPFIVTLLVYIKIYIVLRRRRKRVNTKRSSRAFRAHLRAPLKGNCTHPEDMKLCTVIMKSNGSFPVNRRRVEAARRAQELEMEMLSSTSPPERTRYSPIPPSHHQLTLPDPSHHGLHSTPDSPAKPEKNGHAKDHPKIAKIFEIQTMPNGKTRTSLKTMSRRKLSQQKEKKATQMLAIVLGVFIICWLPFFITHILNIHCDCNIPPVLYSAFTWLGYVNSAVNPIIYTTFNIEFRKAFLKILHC
Measured Endpoint: EC50 (nM)
Record the value in nM, omitting the unit from your answer.

(Q) Annotate the molecule `C(#Cc1ccncc1)CCN1CC=C(c2ccccc2)CC1` with its measured EC50.
(A) 1

(Q) Annotate the molecule `C(#Cc1cccnc1)CCN1CC=C(c2ccccc2)CC1` with its measured EC50.
(A) 1.7

(Q) Annotate the molecule `Nc1ccc(C#CCCN2CC=C(c3ccccc3)CC2)cn1` with its measured EC50.
(A) 0.5

(Q) Annotate the molecule `Nc1ccc(C#CCCN2CC=C(c3ccccc3)CC2)nc1` with its measured EC50.
(A) 1.3

###

Target: 5-hydroxytryptamine receptor 1A (Rattus norvegicus, UniProt P19327)
Sequence (P19327 whole entry): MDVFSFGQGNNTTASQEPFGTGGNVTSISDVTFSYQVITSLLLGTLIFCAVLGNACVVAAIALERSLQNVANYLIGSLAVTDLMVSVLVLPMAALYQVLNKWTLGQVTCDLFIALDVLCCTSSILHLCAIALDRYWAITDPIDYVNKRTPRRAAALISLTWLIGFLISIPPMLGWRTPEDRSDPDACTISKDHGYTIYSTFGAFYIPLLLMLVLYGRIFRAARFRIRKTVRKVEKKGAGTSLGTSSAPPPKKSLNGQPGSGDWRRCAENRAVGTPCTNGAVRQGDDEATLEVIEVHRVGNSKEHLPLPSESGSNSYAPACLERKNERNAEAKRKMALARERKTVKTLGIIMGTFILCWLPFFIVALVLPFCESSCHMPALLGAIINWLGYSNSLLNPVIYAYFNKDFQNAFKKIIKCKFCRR
Experiment: Binding affinity against serotonin 5-hydroxytryptamine 1A receptor using radioligand [3H]8-OH-DPAT binding assay
Design: species or system Homo sapiens
Measured Endpoint: Ki

(Q) Annotate the compound `Nc1cccc(C#CCCN2CC=C(c3ccccc3)CC2)c1` with its measured Ki.
(A) 1550 nM

###

molecular target: D(2) dopamine receptor (Rattus norvegicus, UniProt P61169); experiment: Binding affinity at Dopamine receptor D2 in rat striatal membrane by [3H]spiperone displacement.; assay type: cell membranes, Striatum
Sequence (P61169 whole entry): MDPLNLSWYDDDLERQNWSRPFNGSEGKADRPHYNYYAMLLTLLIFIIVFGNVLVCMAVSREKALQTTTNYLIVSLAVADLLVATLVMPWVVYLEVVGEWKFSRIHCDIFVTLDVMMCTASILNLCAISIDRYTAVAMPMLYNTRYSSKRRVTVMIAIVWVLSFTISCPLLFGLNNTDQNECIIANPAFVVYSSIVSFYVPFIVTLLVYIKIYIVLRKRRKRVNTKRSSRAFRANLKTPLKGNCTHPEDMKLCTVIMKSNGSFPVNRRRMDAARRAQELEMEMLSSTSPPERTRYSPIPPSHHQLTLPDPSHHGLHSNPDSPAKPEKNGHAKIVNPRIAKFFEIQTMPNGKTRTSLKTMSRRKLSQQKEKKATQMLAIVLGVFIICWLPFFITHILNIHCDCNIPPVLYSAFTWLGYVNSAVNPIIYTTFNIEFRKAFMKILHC
pKi: −log10 of the molar value.
pKi vs 7: at or above is label 1, below is label 0.

(Q) Answer whether pKi of `C(#Cc1cccnc1)CCN1CC=C(c2cccs2)CC1` is greater than or equal to 7.
(A) label 0

(Q) Answer whether pKi of `C(#Cc1cccnc1)CCN1CCN(c2ncccn2)CC1` is greater than or equal to 7.
(A) label 0

(Q) Answer whether pKi of `C(#Cc1cccnc1)CCCN1CC=C(c2ccccc2)CC1` is greater than or equal to 7.
(A) label 1

(Q) Answer whether pKi of `C(#Cc1ccc2occc2c1)CCN1CC=C(c2ccccc2)CC1` is greater than or equal to 7.
(A) label 0

(Q) Answer whether pKi of `C(#Cc1ccncc1)CCN1CC=C(c2ccccc2)CC1` is greater than or equal to 7.
(A) label 1

(Q) Answer whether pKi of `C(#Cc1cnc2ccccc2c1)CN1CC=C(c2ccccc2)CC1` is greater than or equal to 7.
(A) label 0

(Q) Answer whether pKi of `C(#Cc1ccc2[nH]ccc2c1)CCN1CC=C(c2ccccc2)CC1` is greater than or equal to 7.
(A) label 0

###

Answer each item with its documented pKi.
molecular target: D(2) dopamine receptor (Rattus norvegicus, UniProt P61169); assay: Binding affinity against Dopamine receptor D2 in CHO-K1 cells using radioligand [3H]NPA binding assay; type: cell-based
// scale note: pKi = -log10(conc_M); give the bare number

(Q) Annotate the compound `C(#Cc1cccnc1)CCN1CC=C(c2ccccc2)CC1` with its measured pKi.
(A) 8.48

(Q) Annotate the compound `Nc1ccc(C#CCCN2CC=C(c3ccccc3)CC2)nc1` with its measured pKi.
(A) 8.72

(Q) Annotate the compound `C(#Cc1ccncc1)CCN1CC=C(c2ccccc2)CC1` with its measured pKi.
(A) 8.39

(Q) Annotate the compound `Nc1ccc(C#CCCN2CC=C(c3ccccc3)CC2)cc1` with its measured pKi.
(A) 9.17

(Q) Annotate the compound `Nc1ccc(C#CCCN2CC=C(c3ccccc3)CC2)cn1` with its measured pKi.
(A) 7.72

(Q) Annotate the compound `Nc1cccc(C#CCCN2CC=C(c3ccccc3)CC2)c1` with its measured pKi.
(A) 7.74
